src = patent US10767162B2

test system: ES cell line that constitutively over-expressed the transcription factor MyoD; type: cell-based; conditions: continuous treatment during differentiation; Pax3 measured on Day 3; relative to DMSO control
Measured Attribute: effect on Pax3 expression

CC[C@H](CO)Nc1nc(NCc2ccccc2)c2ncn(C(C)C)c2n1 :: no effect
COc1cccc(-c2cc(=O)c3ccccc3o2)c1N :: no effect
